This section presents compounds with their documented solubility kinetic values.
conditions: buffer; pH 7.4; 200.0 µM

Some solved entries appear below for comparison.
compound | reported.value
CCN(CC)C(=O)Nc1ccc(Br)cc1 | > 40.7 µg/mL
Cc1c(Cl)cccc1NC(=O)NCCCN1CCCC1=O | > 46.5 µg/mL
Cc1ccc(/C=C(\C#N)C(=O)N2CCCC2)c(C)c1 | > 38.1 µg/mL

query: Dear colleague, please send me the reported solubility kinetic for O=C(NCC1CCCO1)c1cc2ccccc2cc1O (stereo unspecified) when you can.
result: > 40.7 µg/mL

====

conditions: buffer; pH 7.4; 200.0 µM
This section presents compounds with their documented solubility kinetic values.
Quick reminder: number only, in mg/mL, skip the unit.

Some solved entries appear below for comparison.
smiles.string | reported.value
N#Cc1ccccc1NC(=O)COc1ccccc1C(=O)Nc1ccccc1 | 0.0066
CN(CC(=O)Nc1ccc(F)cc1)C(=O)c1ccccc1OCc1ccc(F)cc1 | 0.0304
Cc1cc(=O)[nH]c(SCC(=O)NC2CCCCC2)n1 | 0.0323

Next compound, please.
query: Dear colleague, please send me the reported solubility kinetic for "CNC(=O)c1ccc(NC(=O)Nc2ccccc2)cc1" when you can.
result: 0.0066

====

settings: buffer; pH 7.4; 200.0 µM
This section presents molecules with their documented solubility kinetic values.

smiles.string | solubility kinetic
CC(C)(C)Cc1nnc(NC(=O)c2ccco2)s1 | > 39.8 µg/mL
CN(C)C(=O)NC1c2ccccc2-c2ccccc21 | > 37.8 µg/mL
COc1ccc(NC(=O)c2ccc(NC(=O)C3CC3)cc2)cc1 | < 0.3 µg/mL
COC(=O)c1nc[nH]c1C(=O)OC | > 27.6 µg/mL
Cc1c(NCc2ccccc2O)c(=O)n(-c2ccccc2)n1C | > 46.4 µg/mL

query: Dear colleague, please send me the reported solubility kinetic for "COc1cc([N+](=O)[O-])ccc1NC(=O)/C=C\C(=O)O" when you can.
result: > 39.9 µg/mL

query: Dear colleague, please send me the reported solubility kinetic for "COc1ccc(C)cc1NC(=O)CCNC(=O)c1ccco1" when you can.
result: > 45.3 µg/mL

====

This section presents compounds with their documented solubility kinetic values.
details: buffer; pH 7.4; 200.0 µM

Some solved entries appear below for comparison.
compound | readout.name | reported.value
OCC(O)C1OC(Nc2ccc(Br)cc2)C(O)C1O (stereo not drawn) | solubility kinetic | > 50.1 µg/mL
C=CCOc1ccc(CNCC2CCCO2)cc1.Cl (stereo not drawn) | solubility kinetic | > 42.6 µg/mL

Next compound, please.
query: Dear colleague, please send me the reported solubility kinetic for "COc1ccc(CCNC(=O)CNC(=O)c2ccco2)cc1" when you can.
result: > 45.3 µg/mL

====

settings: buffer; pH 7.4; 200.0 µM
This section presents molecules with their documented solubility kinetic values.

Some solved entries appear below for comparison.
molecule | solubility kinetic
O=C1CCC(=O)N1c1ccccc1 | > 26.3 µg/mL
CCc1ccccc1NC(=O)[C@@H]1CCC(=O)N1C1OC(=O)c2ccccc21 (some centres undefined) | > 54.7 µg/mL

Next molecule, please.
query: Dear colleague, please send me the reported solubility kinetic for "Cc1c(Cl)cccc1NC(=O)NCc1cccnc1" when you can.
result: > 41.4 µg/mL

====

This section presents molecules with their documented solubility kinetic values.
conditions: buffer; pH 7.4; 200.0 µM

Some solved entries appear below for comparison.
molecule | solubility kinetic
CN(CC(=O)Nc1cccc(F)c1)CC(=O)N1CCCCC1 | > 46.1 µg/mL
N#C/C(=C\c1ccc(OCC(N)=O)cc1)C(=O)NC1CC1 | > 42.8 µg/mL
CCN1C(=O)CC(N2CCC(C(=O)N3CCCCCC3)CC2)C1=O (configuration not stated) | > 50.3 µg/mL
O=C(CN1CCN(c2ccc(Cl)cc2[N+](=O)[O-])CC1)N1CCOCC1 | > 55.3 µg/mL
COc1cc(OC)c(C(=O)O/N=C(\N)c2ccccn2)cc1OC | > 49.7 µg/mL
O=C(OCC(=O)N1CCCCCC1)c1ccc[nH]c1=O | > 41.7 µg/mL
Cc1noc(C)c1COC(=O)c1cccnc1Cl | > 40 µg/mL
CC(=O)Nc1ccc(S(=O)(=O)Nc2nc3ccccc3nc2Nc2ccc(C(=O)O)c(O)c2)cc1 | > 74 µg/mL

query: Dear colleague, please send me the reported solubility kinetic for O=C(COC(=O)C1CC2C=CC1C2)Nc1ccc([N+](=O)[O-])cc1 (configuration not stated) when you can.
result: > 47.4 µg/mL

query: Dear colleague, please send me the reported solubility kinetic for COC(C(=O)Nc1c(F)cccc1F)c1ccccc1 (configuration not stated) when you can.
result: > 41.6 µg/mL

query: Dear colleague, please send me the reported solubility kinetic for "O=[N+]([O-])c1ccc(S(=O)(=O)Nc2ncccn2)cc1" when you can.
result: > 42 µg/mL

query: Dear colleague, please send me the reported solubility kinetic for "C=CCn1c(=S)[nH]c2cc(-c3ccccc3)sc2c1=O" when you can.
result: < 0.3 µg/mL
